- target_system: NFIL3 (Homo sapiens, UniProt Q16649)
- Construct: made in house
- Sequence (Q16649 73-136 limits assumed): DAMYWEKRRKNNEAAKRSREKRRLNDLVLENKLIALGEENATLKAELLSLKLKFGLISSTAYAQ
- test_protocol: Direct-binding FRET assay
- measurement_conditions: 23°C; C-terminal rhodamine design; mean or single
Where no end group is shown, it is not given here.
measurement_label: Kd

* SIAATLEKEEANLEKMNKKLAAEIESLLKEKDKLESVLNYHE [JUN-d1] | > 1000 nM

###

- target_system: MAF (Homo sapiens, UniProt O75444)
- Sequence (O75444 288-351 limits assumed): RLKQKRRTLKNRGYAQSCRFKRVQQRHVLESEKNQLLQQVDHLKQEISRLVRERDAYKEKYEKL
- test_protocol: Direct-binding FRET assay
- Set-up: made in house
- measurement_conditions: 4°C; N-terminal rhodamine design; mean or single; read-out: Kd
Where no end group is shown, it is not given here.
Recorded Kd, one value per entry.
measurement_label: Kd

* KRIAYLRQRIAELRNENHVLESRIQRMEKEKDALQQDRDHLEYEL [ATF5-d1] | > 5000 nM
* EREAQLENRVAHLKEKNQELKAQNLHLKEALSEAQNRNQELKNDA [XBP1-d1] | > 1000 nM
* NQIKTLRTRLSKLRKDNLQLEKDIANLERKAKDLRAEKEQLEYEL [ATF4-d1] | > 1000 nM

###

- target_system: FOSL1 (Homo sapiens)
- Construct: made in house
- Sequence (P15407 105-168 limits assumed): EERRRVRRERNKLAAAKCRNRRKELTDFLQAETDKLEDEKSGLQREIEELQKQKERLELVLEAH
- test_protocol: Direct-binding FRET assay
- measurement_conditions: 4°C; C-terminal fluorescein design as donor, TAMRA target titrated; read-out: Kd
pKd: −log10 of the molar value. Where no end group is shown, it is not given here.
measurement_label: pKd

* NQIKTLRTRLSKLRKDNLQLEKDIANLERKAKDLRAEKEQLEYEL [ATF4-d1] | < 5.30

###

- target_system: BATF3 (Homo sapiens, UniProt Q9NR55)
- Construct: made in house
- test_protocol: Direct-binding FRET assay
- measurement_conditions: 23°C; N-terminal rhodamine design; mean or single; read-out: Kd
pKd: −log10 of the molar value. Where no end group is shown, it is not given here.
Recorded measurements of pKd, one per entry
measurement_label: pKd

- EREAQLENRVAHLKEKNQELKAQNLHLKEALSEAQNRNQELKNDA [XBP1-d1]: < 6.00
- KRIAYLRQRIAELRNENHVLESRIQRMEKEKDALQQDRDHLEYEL [ATF5-d1]: 6.50
- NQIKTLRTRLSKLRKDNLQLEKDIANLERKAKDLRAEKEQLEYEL [ATF4-d1]: < 6.00

###

- target_system: ATF4 (Homo sapiens, UniProt P18848)
- Construct: made in house
- Sequence (P18848 278-341 limits assumed): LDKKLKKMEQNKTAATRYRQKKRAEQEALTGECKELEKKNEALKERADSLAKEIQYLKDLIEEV
- test_protocol: Direct-binding FRET assay
- measurement_conditions: 23°C; N-terminal rhodamine design; repeat 2; read-out: Kd
- Description: The direct binding assay was performed manually in 384-well plates and is similar to a previously described assay. Wells were filled with 20 μL of 1 mM TCEP-HCl. […] Briefly, the Kd of the designed peptide homodimer was experimentally determined and used with previously determined target homodimer Kd values to determine the heterodimer Kd. […] A minimum 15% change in the donor fluorescence upon titrating the acceptor peptide from 0 to 1000 nM was required for a fit to be attempted. […]
Where no end group is shown, it is not given here.
measurement_label: Kd

• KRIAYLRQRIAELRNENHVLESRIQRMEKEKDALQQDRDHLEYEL [ATF5-d1] = > 5 µM
